- Tested on: HCT-116
- assay: Cytotoxicity against p53-positive human HCT116 cells at 10 uM after 72 hrs by MTT assay
- Format: functional
Activity: recorded values
The number alone won't do; follow it with the unit.

COc1cc2nc(-c3cccc(Cl)c3)[nH]c(=O)c2cc1OC
35%

**Query** Form field: reported Activity of COc1cc2nc(-c3ccccc3Cl)nc(N)c2cc1OC
**Result** 18%

**Query** Form field: reported Activity of COc1cc2nc(Cc3ccccc3Cl)[nH]c(=O)c2cc1OC
**Result** 59%

**Query** Form field: reported Activity of COc1cc2nc(CNc3cccc(NS(C)(=O)=O)c3)[nH]c(=O)c2cc1OC
**Result** 34%

**Query** Form field: reported Activity of COc1ccc(-c2nc(N)c3cc(OC)c(OC)cc3n2)cc1
**Result** 21%

**Query** Form field: reported Activity of COc1cc2nc(CNc3ccc(NS(C)(=O)=O)cc3)[nH]c(=O)c2cc1OC
**Result** 28%

**Query** Form field: reported Activity of COc1cc2nc(Nc3ccc([N+](=O)[O-])cc3)nc(N)c2cc1OC
**Result** 42%

**Query** Form field: reported Activity of CCCCn1c(-c2ccc(NS(C)(=O)=O)cc2)nc2cc(OC)c(OC)cc2c1=O
**Result** 6%

**Query** Form field: reported Activity of COc1cccc(-c2nc(N)c3cc(OC)c(OC)cc3n2)c1
**Result** 19%

**Query** Form field: reported Activity of CCCCn1c(-c2cccc(-c3nnn[nH]3)c2)nc2cc(OC)c(OC)cc2c1=O
**Result** 13%

**Query** Form field: reported Activity of COc1cc2nc(Cc3cccc4ccccc34)[nH]c(=O)c2cc1OC
**Result** 80%

**Query** Form field: reported Activity of COc1cc2nc(-c3ccc(C)cc3)nc(N)c2cc1OC
**Result** 5%

**Query** Form field: reported Activity of COc1cc2nc(-c3cccc(Cl)c3)nc(N=[N+]=[N-])c2cc1OC
**Result** 56%

**Query** Form field: reported Activity of COc1ccc(-c2nc3cc(OC)c(OC)cc3c(=O)[nH]2)cc1
**Result** 10%

**Query** Form field: reported Activity of COc1cc2nc(Cc3ccc(Cl)cc3)[nH]c(=O)c2cc1OC
**Result** 63%

**Query** Form field: reported Activity of COc1cc2nc(Nc3ccccc3-c3ccccc3NS(C)(=O)=O)nc(N)c2cc1OC
**Result** 95%

**Query** Form field: reported Activity of COc1cc2nc(-c3ccccc3Cl)nc(N=[N+]=[N-])c2cc1OC
**Result** 50%
